Data provenance is patent US20050004225A1.

- system: human aldose reductase (Homo sapiens)
- Construct: His-tag (cleaved yes); made in house; host or cells: E. coli BL21
- assay_summary: Inhibition of recombinant human aldose reductase, DL-glyceraldehyde reduction, NADPH at 340 nm
- Format: biochemical
Catalogue of pKi readings, one per entry.
Worth noting: pKi values are minus log10 of concentrations stated in mol/L.

These recorded examples may help you get a feel for the data.
COc1cccc2c1C(=O)c1c(O)c3c(c(O)c1C2=O)C[C@@](O)(C(=O)CO)C[C@@H]3O[C@H]1C[C@H](N)[C@@H](O)[C@H](C)O1 [Epirubicin] = 4.11
COc1cccc2c1C(=O)c1c(O)c3c(c(O)c1C2=O)C[C@@](O)(C(=O)CO)C[C@@H]3O[C@H]1C[C@H](N)[C@H](O)[C@H](C)O1 = 6.62

Now consider a different molecule.
Any idea what pKi came out for N#CC(=Cc1ccc(O)cc1)C(=O)O [α-cyano-4-hydroxycinnamic acid] on human aldose reductase (Homo sapiens)? 7.07
